Examples of variants with documented self-cleavage kobs at 40 uM GlcN6P follow.
B1: glmS ribozyme (parent)
chain: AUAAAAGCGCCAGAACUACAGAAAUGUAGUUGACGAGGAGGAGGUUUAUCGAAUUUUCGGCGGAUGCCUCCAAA

# Variants of: B1
# method: self-cleavage kobs at 40 uM GlcN6P; higher = faster cleavage; RNA array
# condition.set: with glucosamine-6-phosphate
Fewer inactive variants are shown than the library holds.
recorded.endpoint: self-cleavage kobs at 40 uM GlcN6P

1. C11U U49G : < 1e-05 s⁻¹
2. G51A G62C C67A : < 1e-05 s⁻¹
3. C11U A15C G62C : < 1e-05 s⁻¹
4. C34A G37A A48U : < 1e-05 s⁻¹
5. G35A U46A : < 1e-05 s⁻¹
6. G37C A48U : < 1e-05 s⁻¹
7. U55G C67A : 0.000267 s⁻¹
8. A15G U54C : 0.000969 s⁻¹
9. A53C C61U : < 1e-05 s⁻¹
10. G29U G66A : 8.79e-05 s⁻¹
11. A14U U30G : 0.000104 s⁻¹
12. A53U G59U : < 1e-05 s⁻¹
13. A15C G32U A33C : < 1e-05 s⁻¹
14. C16U U54C : 0.000813 s⁻¹
15. G32C G51A G66A : < 1e-05 s⁻¹
16. G32C A33U : < 1e-05 s⁻¹
17. C34A C61A G63U : < 1e-05 s⁻¹
18. C10G C34U : < 1e-05 s⁻¹
19. A6G A15G C71U : < 1e-05 s⁻¹
20. C16A U54C : 6.96e-05 s⁻¹
21. G9A C16G G63A A64G : < 1e-05 s⁻¹
22. U30C G43A U46A : < 1e-05 s⁻¹
